Tested on: Saccharomyces cerevisiae;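 further: PSI is a weighted mean of sequencing reads over stability bins, variants kept only with over 10 reads, mCherry proximal and sfGFP distal, peptide attached via GGGS linker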
Assay: protein stability index of tFT-peptide fusion (C-terminal peptide) (PSI (0-1 scale)); higher = more stable (slower turnover)
Details: genetic background: cdc34-1; temperature: 37 C
Each record's class is read off its protein stability index using these ranges: zone 1 (below 0.3), zone 2 (0.3 to below 0.6), zone 3 (0.6 or more)

Query: Determine which band this sequence sits in: FFFFPVYFIFVV
Response: zone 1

Query: Determine which band this sequence sits in: LLLVCYSTFIVA
Response: zone 1

Query: Determine which band this sequence sits in: LYLCLVSPVVVL
Response: zone 1

Query: Determine which band this sequence sits in: GFYQSGGLVVVV
Response: zone 3

Query: Determine which band this sequence sits in: WQIGIYILQGLA
Response: zone 1

Query: Determine which band this sequence sits in: FLASLCFFPLLC
Response: zone 2

Query: Determine which band this sequence sits in: FIICAASWFFLG
Response: zone 2

Query: Determine which band this sequence sits in: RAPPPSSLLSPP
Response: zone 3

Query: Determine which band this sequence sits in: LACGIDGYYWRH
Response: zone 3

Query: Determine which band this sequence sits in: FFVRSWWVELLF
Response: zone 3

Query: Determine which band this sequence sits in: RARRFGKWERSG
Response: zone 3

Query: Determine which band this sequence sits in: IIFACFYGVFLM
Response: zone 1

Query: Determine which band this sequence sits in: ILDRRPRTFALV
Response: zone 2

Query: Determine which band this sequence sits in: LLLVPLLAFSAS
Response: zone 2

Query: Determine which band this sequence sits in: LLCSLGFRFSLF
Response: zone 3

Query: Determine which band this sequence sits in: WFSRCVSLGLCW
Response: zone 1

Query: Determine which band this sequence sits in: CVGLYCLFVLLG
Response: zone 1

Query: Determine which band this sequence sits in: IFLKFGLLRSLL
Response: zone 3

Query: Determine which band this sequence sits in: FRLFSLWFCWVR
Response: zone 1

Query: Determine which band this sequence sits in: LRFMLLSFLVIL
Response: zone 1

Query: Determine which band this sequence sits in: VDSTCLLITLLA
Response: zone 2

Query: Determine which band this sequence sits in: VIYYVRVGLVLS
Response: zone 1

Query: Determine which band this sequence sits in: SVVYSVWIYLLH
Response: zone 2

Query: Determine which band this sequence sits in: GLFLLWWLGWLV
Response: zone 3

Query: Determine which band this sequence sits in: VGGSRGARLGVG
Response: zone 2

Query: Determine which band this sequence sits in: GLFLYCCLVSLL
Response: zone 1

Query: Determine which band this sequence sits in: PFPTPPPIPRSP
Response: zone 3

Query: Determine which band this sequence sits in: CLCFFLICFILF
Response: zone 1

Query: Determine which band this sequence sits in: FGPRLLRVMRLL
Response: zone 2

Query: Determine which band this sequence sits in: AFWLFSGIARLA
Response: zone 2

Query: Determine which band this sequence sits in: FLLPILSSSPVL
Response: zone 3

Query: Determine which band this sequence sits in: DYRCWCAILVSS
Response: zone 1

Query: Determine which band this sequence sits in: SSFPGPPLPPDP
Response: zone 3

Query: Determine which band this sequence sits in: VCCSSVSLLVFA
Response: zone 2

Query: Determine which band this sequence sits in: CSYPTLSMYSTT
Response: zone 3

Query: Determine which band this sequence sits in: GRWVLALCLVCG
Response: zone 1

Query: Determine which band this sequence sits in: FFRPWRLVGCLV
Response: zone 1

Query: Determine which band this sequence sits in: IHTFSVVVVVAA
Response: zone 1

Query: Determine which band this sequence sits in: LIMIRLLYLRLI
Response: zone 1

Query: Determine which band this sequence sits in: VFFHFFVCWRFV
Response: zone 1

Query: Determine which band this sequence sits in: RNNLHKKIRRGY
Response: zone 3

Query: Determine which band this sequence sits in: EFWWPFDRRGVI
Response: zone 3

Query: Determine which band this sequence sits in: DQPLWIGVLAYC
Response: zone 2

Query: Determine which band this sequence sits in: TFLVWSLMAGDR
Response: zone 2

Query: Determine which band this sequence sits in: GILLLLISRVVF
Response: zone 1

Query: Determine which band this sequence sits in: GGSWVRCLRTMG
Response: zone 3

Query: Determine which band this sequence sits in: VGVVLWVWGLGD
Response: zone 2

Query: Determine which band this sequence sits in: VCVFFRLCIVWY
Response: zone 1

Query: Determine which band this sequence sits in: CIVFVYCLFSCP
Response: zone 1

Query: Determine which band this sequence sits in: VCILLVAWCLMG
Response: zone 1

Query: Determine which band this sequence sits in: VTFWISLVYVLV
Response: zone 1

Query: Determine which band this sequence sits in: GGVWLSVVSWVG
Response: zone 1

Query: Determine which band this sequence sits in: LCLLFLSFFFVC
Response: zone 2
